Target: PARP-1 F2 R138I (Homo sapiens, UniProt P09874 103-214, R138I)
Sequence (P09874 103-214 R138I): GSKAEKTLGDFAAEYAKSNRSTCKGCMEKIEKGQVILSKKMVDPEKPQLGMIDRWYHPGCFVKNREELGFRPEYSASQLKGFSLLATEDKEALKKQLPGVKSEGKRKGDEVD
Experiment: fluorescence anisotropy; 25 mM NaCl, one-site fit; 50 mM Tris-HCl pH 7.0, 150 uM ZnSO4, 4 mM DTT, 25 C; NaCl 0-200 mM (T2, as in cof; 10 nM DNA) or 25 mM (T3 mutants; 25 nM DNA)
Conditions: protein: recombinant; label: fluorescein-dT at T8; single-chain dumbbell, 18 bp with central nick, two tetraloops
endpoint label: pKd
# pKd is unitless: minus log10 of the molar concentration; print number only

Return value of pKd for input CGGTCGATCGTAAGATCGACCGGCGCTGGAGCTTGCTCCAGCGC (structured_DNA, 5'-phosphate) [44-nt nicked dumbbell, 5'-phosphate, fluorescein-dT] , no commentary.
4.70
